Biological target: dopaminergic receptors D2 (Homo sapiens, UniProt P14416)
Sequence (P14416 whole entry): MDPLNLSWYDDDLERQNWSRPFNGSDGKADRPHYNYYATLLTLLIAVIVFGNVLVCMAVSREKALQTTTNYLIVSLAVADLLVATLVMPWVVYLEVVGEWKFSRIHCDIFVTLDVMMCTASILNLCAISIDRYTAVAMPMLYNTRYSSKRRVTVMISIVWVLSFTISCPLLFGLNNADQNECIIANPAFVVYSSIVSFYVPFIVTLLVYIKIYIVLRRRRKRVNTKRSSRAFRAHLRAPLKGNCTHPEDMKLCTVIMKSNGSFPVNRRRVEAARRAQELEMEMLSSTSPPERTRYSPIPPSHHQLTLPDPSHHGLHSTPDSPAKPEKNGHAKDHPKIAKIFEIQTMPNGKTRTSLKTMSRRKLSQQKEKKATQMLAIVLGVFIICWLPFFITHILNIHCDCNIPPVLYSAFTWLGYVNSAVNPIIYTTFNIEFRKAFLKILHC
Test: Radioligand binding assay, dopaminergic D2 receptors
Conditions: read-out: Inhibition constants Ki for D2 receptors, D2
pKi: −log10 of the molar value.
t means recorded pKi is 9 or above; f means it is below 9.

| compound_string | class_assignment |
| --- | --- |
| O=S(=O)(N[C@H]1CCN(CCCc2noc3cc(F)ccc23)C1)c1cc2ccccc2o1 | f |
| O=S(=O)(N[C@@H]1CCN(CCCc2noc3cc(F)ccc23)C1)c1csc2ccccc12 | f |
| Cc1c(S(=O)(=O)N[C@@H]2CCN(CCCc3noc4cc(F)ccc34)C2)sc2ccc(Cl)cc12 | t |
| O=S(=O)(N[C@@H]1CCN(CCCc2noc3cc(F)ccc23)C1)c1ccc2ccccc2c1 | t |
| Cc1ccc2sc(S(=O)(=O)N[C@H]3CCN(CCCc4noc5cc(F)ccc45)C3)cc2c1 | f |
| Cc1c(S(=O)(=O)NCC2CN(CCCc3noc4cc(F)ccc34)C2)sc2ccc(Cl)cc12 | f |
